- measuredOn: T1, human IL-1RAcP on 293T/17-FR cells (human, UniProt Q9NPH3 21-570)
- T1 sequence (looked up): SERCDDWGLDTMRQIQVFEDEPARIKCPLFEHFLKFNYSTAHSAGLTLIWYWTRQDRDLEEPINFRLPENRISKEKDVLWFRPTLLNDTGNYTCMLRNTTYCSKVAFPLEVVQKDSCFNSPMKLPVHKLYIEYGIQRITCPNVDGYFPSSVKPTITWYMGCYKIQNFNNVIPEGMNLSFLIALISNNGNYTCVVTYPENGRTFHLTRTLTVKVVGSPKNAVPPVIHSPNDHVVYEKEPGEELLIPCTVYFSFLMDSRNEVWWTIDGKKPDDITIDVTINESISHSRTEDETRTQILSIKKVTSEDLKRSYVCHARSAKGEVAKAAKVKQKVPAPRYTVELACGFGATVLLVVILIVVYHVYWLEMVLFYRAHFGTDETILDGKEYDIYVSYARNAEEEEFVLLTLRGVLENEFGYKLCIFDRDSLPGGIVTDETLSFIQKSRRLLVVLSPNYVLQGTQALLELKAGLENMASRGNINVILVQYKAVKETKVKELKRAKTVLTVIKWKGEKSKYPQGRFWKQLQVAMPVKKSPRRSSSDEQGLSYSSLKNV
- testName: cell-based or functional assay
This section presents binders with their documented functional reporter gene assay (% inhibition), 1 µg/mL mAb values.
Note: state the figure and append the unit.

Fill in: functional reporter gene assay (% inhibition), 1 µg/mL mAb of P013.S.01.B.H03 (antibody, V domains shown, rabbit monoclonal antibody; also called P013.A.00045.A02) VH: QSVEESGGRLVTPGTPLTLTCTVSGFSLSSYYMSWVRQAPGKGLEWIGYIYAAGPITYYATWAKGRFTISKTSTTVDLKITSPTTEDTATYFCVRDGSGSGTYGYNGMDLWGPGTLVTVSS VL: AYDMTQTPASVEAAVGGTVNIKCQASQSISNWLAWYQQKPGQPPKLLIYRASTLASGVSSRFKGSGSGTQFTLTISGVESADAATYYCQQGASTTDVDNVFGGGTEVVVK is ___
59%

Fill in: functional reporter gene assay (% inhibition), 1 µg/mL mAb of P013.S.02.B.G01 (antibody, V domains shown, rabbit monoclonal antibody; also called P013.A.00015.G07) VH: QSVEESGGRLVTPGGSLTLTCKVSGFSLSDYDIYWVRQAPGKGLEWIGVIDIENSVYYPTWAKGRFTISKTSTTVDLKITSPTTEDTATYFCARGDYIMTLDLWGQGTLVTVSS VL: AAVLTQTPSPVSAAVGGTVTISCQASQSVYKNNRLAWYQQKPGQPPKLLIYLASTLASGVPSRFKGSGSGTQFTLTISDLESDDAATYYCAGGYSTISENAFGGGTEVVVK is ___
10%

Fill in: functional reporter gene assay (% inhibition), 1 µg/mL mAb of P013.S.02.B.H04 (antibody, V domains shown, rabbit monoclonal antibody; also called P013.A.00029.F11) VH: QSVEESGGRLVKPDETLTLTCTVSGIDLSSYAMGWVRQAPGKGLEYIGIISSSGRTYYANWAKGRFTISKASSTTVDLKITSPTTEDTATYFCARLITVDYYIYDYFNLWGQGTLVTVSS VL: AYDMTQTPASVEAAVGGTVTIKCQASQSISSYLSWYQQKPGQPPKLLIYGASTLASGVPSRFKGSGSGTEYTLTISGVESDDAATYYCQQGYSYNNVDNTFGGGTEVVVK is ___
15%
